- System: antifilaggrin antibodies in human sera
- ASSAY_REMARKS: Line Immuno Assay (LIA): reactivity of streptavidin-complexed synthetic peptides with human sera
- Assay type: binding
- CONDITION_DETAILS: serum group Healthy, number of sera 16
Ends that are not written are not given here.
QUANTITY_KIND: Immunoreactivity of human sera with synthetic peptide: percentage of reactive sera (%)
Write the number in % without appending the unit.

Reference set, count: 4
residues="HSASQDGQDTIRGHPGSS [IGP1155] (also: Arg may be citrulline in one of each IGP pair, not given here)" measured_result=6.3
residues="HSGIGHGQASSAVRDSGHRGYS [IGP1156] (not fully specified; also: Arg may be citrulline in one of each IGP pair, not given here)" measured_result=12.5
residues="HSTSQEGQDTIHGHRGS [IGP1158] (also: Arg may be citrulline in one of each IGP pair, not given here)" measured_result=6.3
residues="GGQGSRHQQAR [IGP1249]" measured_result=6.3

Q. Form field: reported Immunoreactivity of human sera with synthetic peptide: percentage of reactive sera of DSGHRGYSGSQASDNEGH [IGP1157] (also: Arg may be citrulline in one of each IGP pair, not given here)
A. 0

* * *

- System: antifilaggrin antibodies in human sera
- ASSAY_REMARKS: Line Immuno Assay (LIA): reactivity of streptavidin-complexed synthetic peptides with human sera
- Type: binding
- CONDITION_DETAILS: serum group RA sera, number of sera 75
- Source text: Human sera were obtained from the Department of Rheumatology of the University Hospital in Ghent (Belgium). In total, 265 sera were included, of which 75 fulfilled the ARA criteria for RA (Arnett et al., Arthritis Rheum.,31: 315-324, 1987), 155 sera scored positive in the APF fluorescence test (De Keyser et al., in press), 98 reacted with natural filaggrin on Western blot, 80 were APF negative and 16 were derived from healthy controls. […]
Ends that are not written are not given here.
Known Immunoreactivity of human sera with synthetic peptide: percentage of reactive sera of a selection of sequences
Write the number in % without appending the unit.

residues="GGQGSRHQQAR [IGP1249]" measured_result=12.3
residues="HSASQDGQDTIRGHPGSS [IGP1155] (also: Arg may be citrulline in one of each IGP pair, not given here)" measured_result=22.7
residues="HSGIGHGQASSAVRDSGHRGYS [IGP1156] (not fully specified; also: Arg may be citrulline in one of each IGP pair, not given here)" measured_result=33.3
residues="DSGHRGYSGSQASDNEGH [IGP1157] (also: Arg may be citrulline in one of each IGP pair, not given here)" measured_result=4.2

Q. Form field: Immunoreactivity of human sera with synthetic peptide: percentage of reactive sera recorded for HSTSQEGQDTIHGHRGS [IGP1158] (also: Arg may be citrulline in one of each IGP pair, not given here) with antifilaggrin antibodies in human sera (enter value)
A. 32

* * *

- System: antifilaggrin antibodies in human sera
- ASSAY_REMARKS: Line Immuno Assay (LIA): reactivity of streptavidin-complexed synthetic peptides with human sera
- Assay type: binding
- CONDITION_DETAILS: serum group Fg blot pos., number of sera 98
- Description: Human sera were obtained from the Department of Rheumatology of the University Hospital in Ghent (Belgium). In total, 265 sera were included, of which 75 fulfilled the ARA criteria for RA (Arnett et al., Arthritis Rheum.,31: 315-324, 1987), 155 sera scored positive in the APF fluorescence test (De Keyser et al., in press), 98 reacted with natural filaggrin on Western blot, 80 were APF negative and 16 were derived from healthy controls. […]
Ends that are not written are not given here.
Known Immunoreactivity of human sera with synthetic peptide: percentage of reactive sera of a selection of sequences
Write the number in % without appending the unit.

residues="HSASQDGQDTIRGHPGSS [IGP1155] (also: Arg may be citrulline in one of each IGP pair, not given here)" reading_unit=% measured_result=37.2
residues="HSGIGHGQASSAVRDSGHRGYS [IGP1156] (not fully specified; also: Arg may be citrulline in one of each IGP pair, not given here)" reading_unit=% measured_result=48.9
residues="GGQGSRHQQAR [IGP1249]" reading_unit=% measured_result=18.1
residues="HSTSQEGQDTIHGHRGS [IGP1158] (also: Arg may be citrulline in one of each IGP pair, not given here)" reading_unit=% measured_result=43.6

Q. Form field: reported Immunoreactivity of human sera with synthetic peptide: percentage of reactive sera of DSGHRGYSGSQASDNEGH [IGP1157] (also: Arg may be citrulline in one of each IGP pair, not given here)
A. 4.2

Each recorded value in this set is attributed to patent EP0949270A1.
